Target: equine FcRn (large alpha subunit p51) / equine beta-2-microglobulin complex, biotinylated (equine) (UniProt P30441)
Assay: SPR (Biacore), pH 6
measured.attribute: Kd (nM)
Write down the numeric answer in nM and omit the unit.

Query: Supply reported Kd belonging to this binder: equine IgG4 Y436M (antibody, part only; not given: variable domains, not shown: another chain or arm of the molecule) constant: ASTTAPKVFPLASHSAATSGSTVALGCLVSSYFPEPVTVSWNSGALTSGVHTFPSVLQSSGLYSLSSMVTVPASSLKSQTYICNVAHPASSTKVDKKIVIKECNGGCPAECLQVGPSVFIFPPKPKDVLMISRTPTVTCVVVDVGHDFPDVQFNWYVDGVETHTATTEPKQEQFNSTYRVVSVLPIQHKDWLSGKEFKCKVNNKALPAPVERTISKPTGQPREPQVYVLAPHRDELSKNKVSVTCLVKDFYPTDIDIEWKSNGQPEPETKYSTTPAQLDSDGSYFLYSKLTVETNRWQQGTTFTCAVMHEALHNHMTEKSVSKSPGK
Result: 14.3

We now examine a further binder.
Query: Supply reported Kd belonging to this binder: equine IgG4 M428V (antibody, part only; not given: Variable domains, not shown: another chain or arm of the molecule) constant: ASTTAPKVFPLASHSAATSGSTVALGCLVSSYFPEPVTVSWNSGALTSGVHTFPSVLQSSGLYSLSSMVTVPASSLKSQTYICNVAHPASSTKVDKKIVIKECNGGCPAECLQVGPSVFIFPPKPKDVLMISRTPTVTCVVVDVGHDFPDVQFNWYVDGVETHTATTEPKQEQFNSTYRVVSVLPIQHKDWLSGKEFKCKVNNKALPAPVERTISKPTGQPREPQVYVLAPHRDELSKNKVSVTCLVKDFYPTDIDIEWKSNGQPEPETKYSTTPAQLDSDGSYFLYSKLTVETNRWQQGTTFTCAVVHEALHNHYTEKSVSKSPGK
Result: 75.2
